B1: r4_43_TrROS_Hall (parent)
chain: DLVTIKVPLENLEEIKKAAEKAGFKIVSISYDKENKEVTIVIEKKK

Variants of: B1
Assay: folding stability dG (cDNA display proteolysis); higher = more stable
Conditions: PBS, room temperature

variantName: V38L
folding stability dG, kcal/mol: 3.71

variantName: A18F
folding stability dG, kcal/mol: 3.45

variantName: I5Q
folding stability dG, kcal/mol: 3.15

variantName: E43M
folding stability dG, kcal/mol: 4.04

variantName: K46M
folding stability dG, kcal/mol: 3.55

variantName: T4N
folding stability dG, kcal/mol: 3.45

variantName: V38E
folding stability dG, kcal/mol: 0.699

variantName: N11R
folding stability dG, kcal/mol: 4.15

variantName: L2V
folding stability dG, kcal/mol: 3.91

variantName: F24E
folding stability dG, kcal/mol: 2.85

variantName: N11Y
folding stability dG, kcal/mol: 4.11

variantName: V3Q
folding stability dG, kcal/mol: 3.65

variantName: V27T
folding stability dG, kcal/mol: 3.77

variantName: E20P
folding stability dG, kcal/mol: 3.12

variantName: K25V
folding stability dG, kcal/mol: 3.08

variantName: F24Y
folding stability dG, kcal/mol: 3.53

variantName: A18W
folding stability dG, kcal/mol: 4.29

variantName: I42D
folding stability dG, kcal/mol: 0.038

variantName: I40A
folding stability dG, kcal/mol: 2.62

variantName: K46I
folding stability dG, kcal/mol: 3.61

variantName: K6A
folding stability dG, kcal/mol: 3.51

variantName: L9W
folding stability dG, kcal/mol: 3.92
